tested on: Plasmodium berghei; assay: Screen against P. berghei liver stage (PbLuc), transformed with Luciferase, at 10uM; format: functional, HepG2; settings: tested at 10 uM
About 8,600 (12%) of roughly 69,000 compounds showed an effect of 50% or more. The entries come from a sample that favours strong results as a whole.
Each entry below carries its reported INHIBITION.
VALUE_KIND: INHIBITION

[
  {
    "MOLECULE": "CN1CCCN(C(=O)NCc2cccnc2-n2cccn2)CC1",
    "ASSAY_VALUE": "52.3%"
  },
  {
    "MOLECULE": "CCN1CCN(C(=O)NCc2cccnc2-n2cccn2)CC1",
    "ASSAY_VALUE": "33.8%"
  },
  {
    "MOLECULE": "NC(=O)NC(=O)CCN1CCCC1c1cccc2c1OCCO2 (stereo unspecified)",
    "ASSAY_VALUE": "27.7%"
  },
  {
    "MOLECULE": "CN(Cc1nccn1CC(F)(F)F)C(=O)c1ccc2c(c1)OCO2",
    "ASSAY_VALUE": "6.33%"
  },
  {
    "MOLECULE": "O=C(C1CCCCC1)N1C[C@@H]2CCN(c3cnccn3)C[C@@H]2C1",
    "ASSAY_VALUE": "-15.9%"
  },
  {
    "MOLECULE": "CC(C)N1CCC(C(=O)NC[C@H]2CCc3ccccc3O2)CC1",
    "ASSAY_VALUE": "61.5%"
  },
  {
    "MOLECULE": "CNC(=O)[C@H]1C[C@@H]2CN(S(=O)(=O)c3ccc(F)cc3)C[C@@H]2N1C",
    "ASSAY_VALUE": "35.8%"
  },
  {
    "MOLECULE": "O=C(CCN1CCCC1c1cccc2c1OCCO2)N1CCCCC1 (stereo unspecified)",
    "ASSAY_VALUE": "40.6%"
  },
  {
    "MOLECULE": "Cc1nc(N2C[C@@H](CN3CCCN(C)CC3)[C@@H](CO)C2)c2ccsc2n1",
    "ASSAY_VALUE": "50.1%"
  },
  {
    "MOLECULE": "Cc1nc(C)c(C)c(N2C[C@@H](CN3CCCN(C)CC3)[C@@H](CO)C2)n1",
    "ASSAY_VALUE": "15.5%"
  },
  {
    "MOLECULE": "CCc1ncc2c(n1)CN(Cc1nc(-c3cccnc3)no1)CC2",
    "ASSAY_VALUE": "-10.6%"
  },
  {
    "MOLECULE": "CSCC(CCO)Nc1nc(C(F)F)nc2ccccc12 (stereo unspecified)",
    "ASSAY_VALUE": "-49%"
  },
  {
    "MOLECULE": "CN(Cc1ccccc1)c1cnn(CC2CCCCO2)c(=O)c1 (stereo unspecified)",
    "ASSAY_VALUE": "28.2%"
  },
  {
    "MOLECULE": "O=C(CCN1CCCC1c1cccc2c1OCCO2)N1CCOCC1 (stereo unspecified)",
    "ASSAY_VALUE": "57.7%"
  },
  {
    "MOLECULE": "O=C(CC1CC1)N1C[C@@H]2CCN(c3cnccn3)C[C@@H]2C1",
    "ASSAY_VALUE": "15.7%"
  },
  {
    "MOLECULE": "COc1ncccc1CNC(=O)N1CCC(CN2CCOCC2)CC1",
    "ASSAY_VALUE": "29.4%"
  },
  {
    "MOLECULE": "O=C(C1CC(c2ccccc2)=NO1)N1CCCCc2ccccc21 (stereo unspecified)",
    "ASSAY_VALUE": "-15%"
  },
  {
    "MOLECULE": "CN(CCc1ccccc1)Cc1cc(C(=O)N2CCSCC2)no1",
    "ASSAY_VALUE": "40.5%"
  },
  {
    "MOLECULE": "CC(C)C(CNCc1cccc2c1OCO2)N1CCOCC1 (stereo unspecified)",
    "ASSAY_VALUE": "24.8%"
  },
  {
    "MOLECULE": "c1csc(C(CNCc2cccc3c2OCO3)N2CCOCC2)c1 (stereo unspecified)",
    "ASSAY_VALUE": "61.9%"
  },
  {
    "MOLECULE": "Cn1ccnc1C(=O)N1C[C@@H]2CCN(c3cnccn3)C[C@@H]2C1",
    "ASSAY_VALUE": "31.2%"
  },
  {
    "MOLECULE": "COCCOc1ncccc1CNC(=O)N1CCOCC1",
    "ASSAY_VALUE": "44.3%"
  },
  {
    "MOLECULE": "CCC[C@@H]1CN(c2ncnc3sccc23)C[C@H]1NS(C)(=O)=O",
    "ASSAY_VALUE": "27.2%"
  },
  {
    "MOLECULE": "Cc1ccc(NC(=O)CCc2cnn(C)c2)cc1F",
    "ASSAY_VALUE": "22.3%"
  },
  {
    "MOLECULE": "Cc1cnn(CC2CCCCN2Cc2nccn2CC(F)(F)F)c1 (stereo unspecified)",
    "ASSAY_VALUE": "-61.4%"
  },
  {
    "MOLECULE": "Cc1noc(C)c1CN(C)CCc1nc(-c2cccc(Cl)c2)no1",
    "ASSAY_VALUE": "88.1%"
  },
  {
    "MOLECULE": "CC(=O)N1CCCN(C(=O)NCCNc2ccccn2)CC1",
    "ASSAY_VALUE": "16.533%"
  },
  {
    "MOLECULE": "Cc1cc(C2CCCN(C(=O)c3ccc(OCC4CC4)nc3)C2)n[nH]1 (stereo unspecified)",
    "ASSAY_VALUE": "20.4%"
  },
  {
    "MOLECULE": "O=C1NCCN2CCN(C(=O)Nc3ccc(-c4ccccc4)cc3)CC12 (stereo unspecified)",
    "ASSAY_VALUE": "18.6%"
  },
  {
    "MOLECULE": "COCCN1CCCC1c1cccc2c1OCCO2 (stereo unspecified)",
    "ASSAY_VALUE": "59.4%"
  },
  {
    "MOLECULE": "O=C(N[C@@H]1CCN(c2nccc3ccccc23)C[C@H]1O)c1cnccn1",
    "ASSAY_VALUE": "5.78%"
  },
  {
    "MOLECULE": "Cc1nn(C)c(N(C)C)c1CNC(C)c1cccc(OC(C)C)c1 (stereo unspecified)",
    "ASSAY_VALUE": "27.4%"
  },
  {
    "MOLECULE": "Cn1cncc1C(=O)N1C[C@@H]2CCN(c3cnccn3)C[C@@H]2C1",
    "ASSAY_VALUE": "56.6%"
  },
  {
    "MOLECULE": "CCCN1C(=O)[C@@H]2CC[C@H]1CN(S(=O)(=O)c1cccc(Cl)c1)C2",
    "ASSAY_VALUE": "-26.8%"
  },
  {
    "MOLECULE": "CCOc1ncccc1C(=O)N1CCCC(c2nncn2C)C1 (stereo unspecified)",
    "ASSAY_VALUE": "-98.8%"
  },
  {
    "MOLECULE": "CCNC(=O)CCN1CCCC1c1cccc2c1OCCO2 (stereo unspecified)",
    "ASSAY_VALUE": "-2.23%"
  },
  {
    "MOLECULE": "CN1CCCN(C(=O)c2cc(CN(C)CCc3ccccc3)on2)CC1",
    "ASSAY_VALUE": "53.3%"
  },
  {
    "MOLECULE": "Cc1ccc(N2CCCC(NCc3ccc4c(c3)CCO4)C2)nn1 (stereo unspecified)",
    "ASSAY_VALUE": "7.12%"
  },
  {
    "MOLECULE": "COc1ccccc1C(=O)N1CCCC1c1ncc2c(n1)CCNC2 (stereo unspecified)",
    "ASSAY_VALUE": "26.3%"
  },
  {
    "MOLECULE": "CC(C)OCCCNC(=O)CS(=O)(=O)Cc1ccc(C(C)(C)C)cc1",
    "ASSAY_VALUE": "-27.8%"
  },
  {
    "MOLECULE": "CC(C)Oc1ncccc1CNC(=O)N1CCOCC1",
    "ASSAY_VALUE": "65.6%"
  },
  {
    "MOLECULE": "Cn1ccc(C(=O)N2C[C@@H]3CCN(c4cnccn4)C[C@@H]3C2)n1",
    "ASSAY_VALUE": "24%"
  },
  {
    "MOLECULE": "O=C(C1CCCC1)N1C[C@@H]2CCN(c3cnccn3)C[C@@H]2C1",
    "ASSAY_VALUE": "16.1%"
  },
  {
    "MOLECULE": "Cc1cnn(C2CCCN(C(=O)c3ccc(OCC4CC4)nc3)C2)c1 (stereo unspecified)",
    "ASSAY_VALUE": "13.483%"
  },
  {
    "MOLECULE": "COC1[C@@H]2CC[C@H]1CN(c1nc(C)nc3sccc13)C2 (stereo partly specified)",
    "ASSAY_VALUE": "72.6%"
  },
  {
    "MOLECULE": "O=C(Cn1c(-c2ccco2)cc2cccnc21)N1CCCC1",
    "ASSAY_VALUE": "-16.8%"
  }
]
